target: Histone acetyltransferase KAT2A (Homo sapiens); assay: Binding affinity to human GCN5L2 (E726 to K837 residues) expressed in bacterial expression system by BROMOscan assay
Sequence (Q92830 whole entry, the tested form may be a part): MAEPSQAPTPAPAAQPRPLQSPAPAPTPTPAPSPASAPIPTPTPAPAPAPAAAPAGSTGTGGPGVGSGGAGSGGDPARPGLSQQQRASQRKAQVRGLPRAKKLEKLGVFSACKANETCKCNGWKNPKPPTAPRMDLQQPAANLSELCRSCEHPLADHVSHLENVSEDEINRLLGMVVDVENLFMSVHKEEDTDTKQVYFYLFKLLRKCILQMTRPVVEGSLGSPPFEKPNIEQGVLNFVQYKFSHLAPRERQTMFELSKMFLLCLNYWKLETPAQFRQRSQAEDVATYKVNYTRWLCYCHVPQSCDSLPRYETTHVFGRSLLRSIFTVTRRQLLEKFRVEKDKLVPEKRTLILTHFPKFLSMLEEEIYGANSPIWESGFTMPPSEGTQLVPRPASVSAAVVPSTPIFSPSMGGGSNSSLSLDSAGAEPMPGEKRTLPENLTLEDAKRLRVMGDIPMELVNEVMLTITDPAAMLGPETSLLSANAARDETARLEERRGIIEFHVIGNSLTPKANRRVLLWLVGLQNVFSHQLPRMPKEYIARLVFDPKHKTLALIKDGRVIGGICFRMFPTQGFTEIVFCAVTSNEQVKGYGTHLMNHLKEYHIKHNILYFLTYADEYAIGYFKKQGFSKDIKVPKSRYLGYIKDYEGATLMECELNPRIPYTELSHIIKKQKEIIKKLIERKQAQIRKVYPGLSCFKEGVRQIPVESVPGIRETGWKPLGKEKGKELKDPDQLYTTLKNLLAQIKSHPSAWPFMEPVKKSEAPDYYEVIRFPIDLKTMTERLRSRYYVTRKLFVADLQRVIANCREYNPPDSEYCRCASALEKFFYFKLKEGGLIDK
pKd: −log10 of the molar value.
measuredEndpoint: pKd

### Prompt Could you share which pKd value was measured for CCS(=O)(=O)Nc1ccc(Oc2ccc(F)cc2F)c(-c2cn(C)c(=O)c3[nH]ccc23)c1 ?
### Response < 6.00

* * *

assay: Intrinsic clearance in mouse liver microsomes; assay type: ADME, microsome; conditions: read-out: CLH (converted)
measuredEndpoint: CLint scaled (mL/min/kg)
One number for each entry, in mL/min/kg.

### Prompt Need CLint scaled, item CCS(=O)(=O)Nc1ccc(Oc2ccc(F)cc2F)c(-c2cn(C)c(=O)c3[nH]ccc23)c1
### Response 138

* * *

assay: Intrinsic clearance in monkey hepatocytes; type: ADME, cell-based, Macaca mulatta, Hepatocyte; conditions: rhesus monkey, read-out: CLH (converted)
measuredEndpoint: CLint scaled (mL/min/kg)
Give bare numbers, in mL/min/kg.

### Prompt Returns the measured CLint scaled for the input compound. Input: CCS(=O)(=O)Nc1ccc(Oc2ccc(F)cc2F)c(-c2cn(C)c(=O)c3[nH]ccc23)c1
### Response 51.7

* * *

molecular target: SWI/SNF-related matrix-associated actin-dependent regulator of chromatin subfamily A member 4 (Homo sapiens); assay: Binding affinity to human SMARCA4 (A1448 to S1575 residues) expressed in bacterial expression system by BROMOscan assay
Sequence (P51532 whole entry, the tested form may be a part): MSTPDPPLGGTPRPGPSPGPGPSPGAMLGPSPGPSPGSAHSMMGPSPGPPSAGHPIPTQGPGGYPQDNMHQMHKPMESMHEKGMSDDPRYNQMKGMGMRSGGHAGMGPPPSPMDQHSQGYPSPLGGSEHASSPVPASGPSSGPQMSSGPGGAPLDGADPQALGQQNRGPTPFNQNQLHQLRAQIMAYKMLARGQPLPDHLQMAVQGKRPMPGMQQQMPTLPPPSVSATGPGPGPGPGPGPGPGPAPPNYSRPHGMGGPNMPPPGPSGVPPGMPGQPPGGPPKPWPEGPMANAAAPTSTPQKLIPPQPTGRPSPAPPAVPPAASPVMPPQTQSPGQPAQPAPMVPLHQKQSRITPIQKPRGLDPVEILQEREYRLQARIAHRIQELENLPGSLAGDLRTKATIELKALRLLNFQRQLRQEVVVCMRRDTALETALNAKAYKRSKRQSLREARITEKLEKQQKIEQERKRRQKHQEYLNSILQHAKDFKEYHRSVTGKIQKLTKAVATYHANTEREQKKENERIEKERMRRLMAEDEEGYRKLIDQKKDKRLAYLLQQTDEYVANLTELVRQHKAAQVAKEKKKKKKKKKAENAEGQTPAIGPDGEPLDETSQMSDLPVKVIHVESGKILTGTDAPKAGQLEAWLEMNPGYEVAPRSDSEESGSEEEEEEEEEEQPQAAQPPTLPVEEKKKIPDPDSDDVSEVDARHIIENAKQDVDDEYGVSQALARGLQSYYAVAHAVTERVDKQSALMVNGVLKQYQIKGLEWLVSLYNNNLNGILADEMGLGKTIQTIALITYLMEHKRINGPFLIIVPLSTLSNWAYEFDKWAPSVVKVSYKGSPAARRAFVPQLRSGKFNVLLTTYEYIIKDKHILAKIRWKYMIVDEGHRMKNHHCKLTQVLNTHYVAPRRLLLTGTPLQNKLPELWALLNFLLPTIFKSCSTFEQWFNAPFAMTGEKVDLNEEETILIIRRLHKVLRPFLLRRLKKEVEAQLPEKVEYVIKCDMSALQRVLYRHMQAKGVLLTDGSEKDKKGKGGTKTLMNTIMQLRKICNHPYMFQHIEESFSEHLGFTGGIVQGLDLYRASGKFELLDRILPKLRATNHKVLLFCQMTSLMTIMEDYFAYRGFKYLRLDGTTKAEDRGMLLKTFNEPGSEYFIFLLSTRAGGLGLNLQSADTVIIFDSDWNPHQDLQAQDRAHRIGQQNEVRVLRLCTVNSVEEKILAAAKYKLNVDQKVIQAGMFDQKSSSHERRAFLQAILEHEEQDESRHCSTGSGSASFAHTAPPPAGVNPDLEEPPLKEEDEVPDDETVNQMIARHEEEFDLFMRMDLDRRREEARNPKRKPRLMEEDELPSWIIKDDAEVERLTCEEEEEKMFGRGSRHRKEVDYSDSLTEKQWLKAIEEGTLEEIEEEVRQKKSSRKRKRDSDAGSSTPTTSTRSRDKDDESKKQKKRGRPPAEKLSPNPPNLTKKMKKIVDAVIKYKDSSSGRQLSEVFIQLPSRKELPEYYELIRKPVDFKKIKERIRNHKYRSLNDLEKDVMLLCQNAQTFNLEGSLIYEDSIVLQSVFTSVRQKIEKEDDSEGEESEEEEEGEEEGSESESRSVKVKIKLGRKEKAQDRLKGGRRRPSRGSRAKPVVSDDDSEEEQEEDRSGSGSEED
measuredEndpoint: Kd

### Prompt For the compound CCS(=O)(=O)Nc1ccc(Oc2ccc(F)cc2F)c(-c2cn(C)c(=O)c3[nH]ccc23)c1 , what Kd is on record?
### Response > 1 µM

* * *

test: Plasma clearance in iv dosed monkey; assay type: ADME, organism-based, Macaca mulatta; conditions: rhesus monkey
measuredEndpoint: clearance
Kindly format the answer as number then unit.

### Prompt // returns reported clearance for input CCS(=O)(=O)Nc1ccc(Oc2ccc(F)cc2F)c(-c2cn(C)c(=O)c3[nH]ccc23)c1 [MIVEBRESIB]
### Response 5.5 mL/min/kg

* * *

target: Bromodomain-containing protein 4 (Homo sapiens, UniProt O60885); assay: Inhibition of BRD4 in human H1299 cells assessed as decrease in HPV LCR-E2-EP400-mediated transcriptional repression after 24 hrs by Bright-Glo luciferase reporter gene assay
Returns: string. Value is Yes if measured EC50 is below 80 nM, and No if it is greater than or equal to it.

Example entries and their recorded answers appear below.
### Prompt I'd appreciate it if you could check whether Cn1cc(-c2cc(NS(C)(=O)=O)ccc2Oc2ccccc2C(F)(F)F)c2cc[nH]c2c1=O has EC50 smaller than 80 nM.
### Response Yes

### Prompt hey, is EC50 for CCS(=O)(=O)Nc1ccc(Oc2ccccc2)c(-c2cn(C)c(=O)c3[nH]ccc23)c1 lower than 80 nM or not?
### Response Yes

### Prompt Regarding Cn1cc(-c2ccccc2Oc2ccccc2)cc(N)c1=O , kindly confirm whether its EC50 is beneath 80 nM.
### Response No

### Prompt Confirm or reject: EC50 of CC(=O)Nc1ccc(Oc2ccccc2)c(-c2cn(C)c(=O)c3[nH]ccc23)c1 lies strictly below 80 nM
### Response Yes

### Prompt hey, is EC50 for Cn1cc(-c2cc(NS(C)(=O)=O)ccc2Oc2ccccc2)c2cc[nH]c2c1=O lower than 80 nM or not?
### Response Yes

***
### Prompt Decide: EC50 of Cn1cc(-c2cc(S(C)(=O)=O)ccc2Oc2ccccc2)c2cc[nH]c2c1=O strictly below 80 nM?
### Response Yes

### Prompt Quick check: does Cn1cc(-c2ccccc2Oc2ccccc2)ccc1=O have EC50 under 80 nM?
### Response No

### Prompt Identify whether the compound Cn1cc(-c2cc(NS(C)(=O)=O)ccc2OC2CCCCC2)c2cc[nH]c2c1=O records EC50 below 80 nM.
### Response Yes

### Prompt Problem: For the compound CCS(=O)(=O)Nc1ccc(OC2CCC(N(C)C)CC2)c(-c2cn(C)c(=O)c3[nH]ccc23)c1 (stereo unspecified) , is EC50 under 80 nM?
### Response No

### Prompt Please determine if CCS(=O)(=O)Nc1ccc(OC2CCN(C)CC2)c(-c2cn(C)c(=O)c3[nH]ccc23)c1 is below 80 nM in terms of EC50.
### Response No

### Prompt Does this compound meet the criterion EC50 < 80 nM? CCS(=O)(=O)Nc1ccc(Oc2c(F)cc(F)cc2F)c(-c2cn(C)c(=O)c3[nH]ccc23)c1
### Response Yes

### Prompt Would you kindly verify if EC50 of Cn1cc(-c2cc(C(N)=O)ccc2Oc2ccccc2)c2cc[nH]c2c1=O is strictly less than 80 nM?
### Response Yes

### Prompt hey, is EC50 for Cn1cc(-c2cc(NS(=O)(=O)CC(F)(F)F)ccc2Oc2ccccc2)c2cc[nH]c2c1=O lower than 80 nM or not?
### Response Yes

### Prompt Answer whether the compound CCS(=O)(=O)Nc1ccc(Oc2ccc(C(F)(F)F)cc2)c(-c2cn(C)c(=O)c3[nH]ccc23)c1 has EC50 strictly less than 80 nM
### Response Yes

### Prompt Does this compound meet the criterion EC50 < 80 nM? Cn1cc(-c2cc(S(N)(=O)=O)ccc2Oc2ccccc2)c2cc[nH]c2c1=O
### Response Yes

### Prompt Hello, I'm reviewing records and need to know if EC50 of Cn1cc(-c2cc(NS(C)(=O)=O)ccc2OCc2ccccc2)c2cc[nH]c2c1=O is below 80 nM. Could you check?
### Response No

### Prompt State whether 80 nM exceeds EC50 recorded for CCNC(=O)c1ccc(Oc2ccccc2)c(-c2cn(C)c(=O)c3[nH]ccc23)c1 .
### Response Yes

### Prompt Problem: For the compound CN(C)S(=O)(=O)Nc1ccc(Oc2ccccc2)c(-c2cn(C)c(=O)c3[nH]ccc23)c1 , is EC50 under 80 nM?
### Response Yes

### Prompt Please let me know if CCS(=O)(=O)Nc1ccc(Oc2ccc(F)cc2F)c(-c2cn(C)c(=O)c3[nH]ccc23)c1 [MIVEBRESIB] shows EC50 below 80 nM.
### Response Yes

### Prompt Find out if reported EC50 for CCS(=O)(=O)Nc1ccc(Oc2cncnc2)c(-c2cn(C)c(=O)c3[nH]ccc23)c1 is less than 80 nM
### Response No

### Prompt Does the reported EC50 of the following compound sit strictly below 80 nM? Cn1cc(-c2cc(NS(C)(=O)=O)ccc2Oc2ccc(F)cc2F)c2cc[nH]c2c1=O
### Response Yes

### Prompt Check if EC50 falls below 80 nM for Cn1cc(-c2ccccc2Oc2ccccc2)c2cc[nH]c2c1=O .
### Response No

### Prompt Hello, I'm reviewing records and need to know if EC50 of CCS(=O)(=O)Nc1ccc(Oc2ccc(C#N)cc2)c(-c2cn(C)c(=O)c3[nH]ccc23)c1 is below 80 nM. Could you check?
### Response Yes

### Prompt Hello, is EC50 of the following compound strictly smaller than 80 nM? Cn1cc(-c2cc(NS(C)(=O)=O)ccc2OC2CCOCC2)c2cc[nH]c2c1=O
### Response No
